Origin of the recorded values: patent US9290476B2

Target: human RORγt LBD (Homo sapiens (Human))
Sequence (P51449 258-518): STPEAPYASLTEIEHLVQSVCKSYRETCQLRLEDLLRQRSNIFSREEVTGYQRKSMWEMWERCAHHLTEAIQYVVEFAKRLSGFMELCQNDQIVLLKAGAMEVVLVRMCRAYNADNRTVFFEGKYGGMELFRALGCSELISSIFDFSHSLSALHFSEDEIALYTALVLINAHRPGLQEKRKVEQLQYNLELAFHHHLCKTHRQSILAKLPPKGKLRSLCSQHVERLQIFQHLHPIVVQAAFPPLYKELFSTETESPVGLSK
Assay: RORγt reporter assay (GAL4-RORγt LBD luciferase in HEK293T cells)
Assay type: cell-based
Conditions: HEK293T cells, 6 μM
Readout type: RORγt reporter Assay, % inhibition @ 6 μM (%)
Number in %, nothing else.

The reported value for Cn1cncc1C(O)(c1ccc(C(F)(F)F)nc1)c1ccc2nc(N3CCC3)c(Cc3ccc(C(F)(F)F)cc3)c(Cl)c2c1 (single isomer, unassigned) [Example 92C] in terms of RORγt reporter Assay, % inhibition @ 6 μM is 97

Briefly, RORγt reporter Assay, % inhibition @ 6 μM measured for COc1nc2ccc(C(O)(c3cnnn3C)C3CN(C(C)=O)C3)cc2c(Cl)c1Cc1ccc(C(F)(F)F)cc1 (single isomer, unassigned) [Example 97C] : 99

Entry under test: CCc1nc2ccc(C(O)(c3cnnn3C)C3CN(C(C)=O)C3)cc2c(Cl)c1Cc1ccc(C(F)(F)F)cc1 (single isomer, unassigned) [Example 90C] . Its RORγt reporter Assay, % inhibition @ 6 μM was 98

====

Target: human RORγt ligand binding domain (RORγt LBD) (Homo sapiens (Human))
Sequence (P51449 other isoform, or with tags, fused parts or gaps): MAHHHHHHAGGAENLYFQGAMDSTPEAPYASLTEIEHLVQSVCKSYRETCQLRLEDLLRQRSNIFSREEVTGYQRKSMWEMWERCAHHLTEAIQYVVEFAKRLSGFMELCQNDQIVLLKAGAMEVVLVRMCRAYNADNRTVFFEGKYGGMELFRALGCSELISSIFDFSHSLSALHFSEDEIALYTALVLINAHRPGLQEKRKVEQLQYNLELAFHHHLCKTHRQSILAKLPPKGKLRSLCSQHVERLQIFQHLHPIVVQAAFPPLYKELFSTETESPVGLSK
Test: RORγt ThermoFluor assay (thermal shift binding affinity)
Conditions: estimated from thermal shift
Readout type: Kd (nM)
Kindly provide the numeric value in nM only, without the unit symbol.

Some entries whose results are on file:
COc1nc2ccc(C(O)(c3ccc(C(F)(F)F)nc3)c3cncn3C)cc2c(Cl)c1Cc1cc2ccccc2s1 (stereo not shown) [Example 37A] :: 7.8
Cn1cncc1C(O)(c1ccc(Cl)cc1)c1ccc2nc(O)c(Cc3ccc(-n4cccn4)cc3)c(Cl)c2c1 (stereo not shown) [Example 55A] :: 7600
COc1nc2ccc(C(O)(c3cccnc3)c3cccc(Cl)c3)cc2c(Cl)c1Cc1ccc(F)cc1 (stereo not shown) [Example 7] :: 40
COc1nc2ccc(C(O)(c3ccc(Cl)cc3)c3cncn3C)cc2c(Cl)c1Cc1cc2ccccc2s1 (single isomer, unassigned) [Example 36C] :: 11

In plain terms, COc1nc2ccc(C(O)(c3ccc(C#N)cc3)c3cncn3C)cc2c(C#N)c1Cc1ccc(-n2cccn2)cc1 (single isomer, unassigned) [Example 76C] has a documented Kd of 15

Sure, the documented Kd for Cn1cncc1C(O)(c1ccc(Cl)cc1)c1ccc2nc(C#N)c(Cc3ccc(-n4cccn4)cc3)c(C#N)c2c1 (single isomer, unassigned) [Example 71C] is 130

Per the record, COc1nc2ccc(C(O)(c3ccc(Cl)cc3)c3cncn3C)cc2c(Cl)c1Cc1ccc(S(C)(=O)=O)cc1 (stereo not shown) [Example 31] has Kd of 64

// Kd value for COc1nc2ccc(C(O)(c3ccc(Cl)cc3)c3cncn3C)cc2c(C#N)c1Cc1ccc(-n2cccn2)cc1 (stereo not shown) [Example 69] : 50

// Kd value for Cn1cncc1C(O)(c1ccc(C(F)(F)F)nc1)c1ccc2nc(N3CCC3)c(Cc3ccc(-n4cccn4)cc3)c(Cl)c2c1 (stereo not shown) [Example 68A] : 8.3

response.value for COc1nc2c(C)cc(C(O)(c3cncn3C)c3cncn3C)cc2c(Cl)c1Cc1ccc(S(C)(=O)=O)cc1 [Example 57] (field: Kd) = 8.4

Kd for COc1nc2c(C)cc(C(O)(c3ccc(C(F)(F)F)nc3)c3cncn3C)cc2c(Cl)c1Cc1ccc(-n2cccn2)cc1 (single isomer, unassigned) [Example 29B] is 93

# Kd of COc1nc2ccc(C(O)(c3cnnn3C)c3cnc(C)n3C)cc2c(C#N)c1Cc1ccc(C(F)(F)F)cc1 (single isomer, unassigned) [Example 81B] = 0.05
